All values here come from patent US11994512B2.

# Test system: intracellular proteome of ENR+CD and ENR organoids
# procedure text: LC-MS/MS TMT proteomics of ENR+CD versus ENR organoids
# Type: cell-based, C57BL/6 mice
# details: protein abundance ratio ENR+CD versus ENR organoids, sample pair M1-2; LC-MS/MS TMT proteomics
# M1-2 Log2 Median Normalized annotations
Quick one: just the number, no unit, thanks!

Would you please look over these solved cases?
molecule	M1-2 Log2 Median Normalized
Q8WUR0 (protein, UniProt Q8WUR0 1-141, looked up, full-length) MPIMVDDIMRLLCSISQERKMKAAVKHSGKGAMVAGAMAFVGGLVGGPPGIAVGGTVGGLLGAWMTSGQFKPVPQILMELPPAEQRKLVNEAMAIIGNLDWTDAVQLTALVMSNQAMQQRLLAMLTTYVTKELQAEIRYED	−1.798
Q91Y74 (protein, UniProt Q91Y74 1-333, looked up, full-length) MTSKSHWKLLALALVLVVVMVWYSISREDRYIEFFYFPISEKKEPCFQGEAERQASKIFGNRSREQPIFLQLKDYFWVKTPSTYELPFGTKGSEDLLLRVLAITSYSIPESIKSLECRRCVVVGNGHRLRNSSLGGVINKYDVVIRLNNAPVAGYEGDVGSKTTIRLFYPESAHFDPKIENNPDTLLVLVAFKAMDFHWIETILSDKKRVRKGFWKQPPLIWDVNPKQVRILNPFFMEIAADKLLSLPIQQPRKIKQKPTTGLLAITLALHLCDLVHIAGFGYPDASNKKQTIHYYEQITLKSMAGSGHNVSQEAIAIKRMLEMGAVKNLTYF	−1.258
Q768S4 (protein, UniProt Q768S4 1-302, looked up, full-length) MADTIFSSGNDQWVCPNDRQLALRAKLQTGWSVHTYQTEKQRRSQCLSPGELEIILQVIQRAERLDILEQQRIGRLVERLETMQRNVMGNGLSQCLLCGEVLGFLGSSSVFCKDCRKKVCTKCGIEASPGQKRPLWLCKICSEQREVWKRSGAWFYKGLPKYILPLKTPGRADDPHFRPLPVEPTETQPPSAETSRVYTWARGRVVSSDSDSDSDLSSSSLEDRPLPSGVKGTKGDKPRGDSGASMESPRLGPARPPSHLSGSQSSLGSEAGTGATEPQGGTPAQPEPRVPGKRHTWATPRY	0.548

In: I would be grateful if you could share the reported M1-2 Log2 Median Normalized for Q9JJ78 (protein, UniProt Q9JJ78 1-330, looked up, full-length) MEGINNFKTPNKSEKRKSVLCSTPCVNIPASPFMQKLGFGTGVSVYLMKRSPRGLSHSPWAVKKISLLCDDHYRTVYQKRLTDEAKILKNLNHPNIIGYRAFTEASDGSLCLAMEYGGEKSLNDLIEERNKDSGSPFPAAVILRVALHMARGLKYLHQEKKLLHGDIKSSNVVIKGDFETIKICDVGVSLPLDENMTVTDPEACYIGTEPWKPKEALEENGIITDKADVFAFGLTLWEMMTLCIPHVNLPDDDVDEDATFDESDFDDEAYYAALGTRPSINMEELDDSYQKAIELFCVCTNEDPKDRPSAAHIVEALELDGQCCGLSSKH .
Out: −0.959
